Where these numbers come from: ChEMBL document CHEMBL1201861

Please respond with reported pIC50 for every item in the list.
# Test system: SNU-5;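 note: cell viability readout used to measure growth inhibition in human NCI-SNU-5 cells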
# Assay remarks: cells
# Type: functional, cell-based
# Recorded conditions: Homo sapiens
# Description: SANGER: Inhibition of human NCI-SNU-5 cell growth in a cell viability assay.
pIC50: −log10 of the molar value.

Q. Quick check: pIC50 of `CS(=O)(=O)CCNCc1ccc(-c2ccc3ncnc(Nc4ccc(OCc5cccc(F)c5)c(Cl)c4)c3c2)o1` ?
A. < 5.70

Q. Recorded pIC50 of `Cc1ccc(Nc2nccc(N(C)c3ccc4c(C)n(C)nc4c3)n2)cc1S(N)(=O)=O` , please.
A. < 5.10

Q. Requested field: pIC50. Item: `CNC(=O)c1cc(Oc2ccc(NC(=O)Nc3ccc(Cl)c(C(F)(F)F)c3)cc2)ccn1`
A. < 5.40

Q. Any idea what its pIC50 is? The compound is `CC(=O)O[C@@H]1[C@@H](OC(C)=O)[C@@H](O)[C@H](Oc2c(-c3ccc(O)cc3)oc3cc(O)cc(O)c3c2=O)O[C@H]1C`
A. < 5.00

Q. I would be grateful if you could share the reported pIC50 for COc1cc(F)c(F)c(Nc2ccc(I)cc2F)c1NS(=O)(=O)C1(CC(O)CO)CC1 (centres undefined) .
A. 5.35

Q. Look up pIC50: `CN(C)C/C=C/C(=O)Nc1cc2c(Nc3ccc(F)c(Cl)c3)ncnc2cc1O[C@H]1CCOC1`
A. < 6.30

Q. Entry `C=CCc1cccc(/C=N/NC(=O)CN2CCN(Cc3ccccc3)CC2)c1O` : reported pIC50 = ?
A. < 5.59

Q. Report pIC50 for `C[C@]1(O)C[C@@H](c2nc(-c3ccc4ccc(-c5ccccc5)nc4c3)c3c(N)nccn32)C1` please.
A. < 5.59

Q. What value of pIC50 has been recorded for this entry: CN(Cc1cnc2nc(N)nc(N)c2n1)c1ccc(C(=O)N[C@@H](CCC(=O)O)C(=O)O)cc1 [METHOTREXATE]
A. < 6.70
